Target: UniProt:P00533
Sequence (P00533 25-1210): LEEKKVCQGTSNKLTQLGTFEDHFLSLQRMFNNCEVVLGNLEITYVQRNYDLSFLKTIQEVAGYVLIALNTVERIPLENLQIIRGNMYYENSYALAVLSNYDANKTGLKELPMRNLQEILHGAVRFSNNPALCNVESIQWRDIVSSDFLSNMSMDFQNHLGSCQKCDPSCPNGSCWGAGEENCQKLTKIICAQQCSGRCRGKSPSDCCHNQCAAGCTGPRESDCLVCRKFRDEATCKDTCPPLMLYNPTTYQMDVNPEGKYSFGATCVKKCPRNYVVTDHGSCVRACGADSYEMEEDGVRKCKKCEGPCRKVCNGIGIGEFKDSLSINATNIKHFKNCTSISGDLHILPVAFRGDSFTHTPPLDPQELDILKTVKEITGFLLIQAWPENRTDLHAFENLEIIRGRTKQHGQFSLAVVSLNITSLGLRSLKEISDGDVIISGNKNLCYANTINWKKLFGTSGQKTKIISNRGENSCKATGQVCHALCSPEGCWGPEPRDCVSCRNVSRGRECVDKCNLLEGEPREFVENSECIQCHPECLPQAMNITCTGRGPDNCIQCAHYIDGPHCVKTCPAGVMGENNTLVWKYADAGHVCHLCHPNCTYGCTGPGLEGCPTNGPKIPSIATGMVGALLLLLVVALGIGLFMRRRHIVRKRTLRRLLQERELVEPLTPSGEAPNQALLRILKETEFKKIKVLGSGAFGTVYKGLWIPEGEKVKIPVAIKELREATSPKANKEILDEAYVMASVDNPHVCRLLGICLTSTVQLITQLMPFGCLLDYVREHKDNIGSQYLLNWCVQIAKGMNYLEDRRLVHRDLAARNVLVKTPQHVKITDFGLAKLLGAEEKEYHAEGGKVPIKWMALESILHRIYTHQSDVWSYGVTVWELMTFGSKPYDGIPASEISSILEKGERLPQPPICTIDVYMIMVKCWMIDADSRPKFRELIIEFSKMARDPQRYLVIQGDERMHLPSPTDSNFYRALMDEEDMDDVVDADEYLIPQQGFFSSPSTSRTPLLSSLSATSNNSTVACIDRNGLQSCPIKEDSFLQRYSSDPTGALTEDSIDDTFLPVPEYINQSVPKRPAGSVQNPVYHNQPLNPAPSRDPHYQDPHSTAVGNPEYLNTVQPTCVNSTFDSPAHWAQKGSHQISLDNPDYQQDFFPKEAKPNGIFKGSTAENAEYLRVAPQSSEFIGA
Assay: Z'-LYTE biochemical assay, ErbB1 kinase inhibition
Conditions: @ 1 μM
readout-label: inhibition at 1 µM (%)

1) Cc1cccc(Nc2cc(Nc3cccc(NC(=O)/C=C/CN(C)C)c3)ncn2)c1    95
2) C=CC(=O)Nc1cccc(Nc2cc(Nc3ccc(OCc4ccccn4)c(Cl)c3)ncn2)c1    98
3) C=CC(=O)Nc1cccc(Nc2cc(Oc3cccc(C(F)(F)F)c3)ncn2)c1    100
4) C#Cc1cccc(Nc2cc(Nc3cccc(C#C)c3)ncn2)c1    79
5) C=CC(=O)Nc1cccc(Nc2cc(N(C)c3ccccc3)ncn2)c1    98

* * *

Parameter pIC50: see the listing below.
Target: JAK3 (Homo sapiens)
Sequence (P52333 1-1124): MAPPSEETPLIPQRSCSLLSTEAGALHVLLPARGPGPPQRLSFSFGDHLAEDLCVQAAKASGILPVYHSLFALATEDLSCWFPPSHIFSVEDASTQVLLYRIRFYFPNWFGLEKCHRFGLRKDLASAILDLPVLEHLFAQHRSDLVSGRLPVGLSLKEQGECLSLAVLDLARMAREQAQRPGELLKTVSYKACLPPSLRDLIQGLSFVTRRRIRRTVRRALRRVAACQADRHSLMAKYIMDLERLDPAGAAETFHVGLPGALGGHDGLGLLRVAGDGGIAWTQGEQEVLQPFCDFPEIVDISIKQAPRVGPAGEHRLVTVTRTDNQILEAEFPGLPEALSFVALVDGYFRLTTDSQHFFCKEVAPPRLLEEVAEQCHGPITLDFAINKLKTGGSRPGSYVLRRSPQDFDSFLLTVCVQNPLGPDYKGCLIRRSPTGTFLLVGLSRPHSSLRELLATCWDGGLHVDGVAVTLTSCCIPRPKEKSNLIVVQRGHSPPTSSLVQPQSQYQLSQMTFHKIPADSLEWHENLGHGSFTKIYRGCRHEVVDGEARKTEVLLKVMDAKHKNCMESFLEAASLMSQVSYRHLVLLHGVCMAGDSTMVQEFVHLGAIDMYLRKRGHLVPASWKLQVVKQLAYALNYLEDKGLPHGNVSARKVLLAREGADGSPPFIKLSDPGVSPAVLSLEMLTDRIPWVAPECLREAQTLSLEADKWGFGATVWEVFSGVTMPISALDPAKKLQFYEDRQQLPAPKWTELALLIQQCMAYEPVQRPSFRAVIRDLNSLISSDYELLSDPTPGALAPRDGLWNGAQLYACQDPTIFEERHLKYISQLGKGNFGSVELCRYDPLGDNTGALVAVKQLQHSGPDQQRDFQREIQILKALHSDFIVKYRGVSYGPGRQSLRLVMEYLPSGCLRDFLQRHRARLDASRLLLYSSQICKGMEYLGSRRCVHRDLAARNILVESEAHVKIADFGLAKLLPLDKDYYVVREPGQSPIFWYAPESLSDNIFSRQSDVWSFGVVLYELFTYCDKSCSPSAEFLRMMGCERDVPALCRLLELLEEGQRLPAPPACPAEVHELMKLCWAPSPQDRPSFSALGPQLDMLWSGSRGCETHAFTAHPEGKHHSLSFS
pIC50: −log10 of the molar value.

1) C=CC(=O)Nc1cccc(Nc2cc(Nc3cccc(Oc4ccccc4)c3)ncn2)c1 [I-75]    6.00 to 7.00

pIC50 value, target or system JAK3 (Homo sapiens), for C#Cc1cccc(Nc2cc(Nc3cccc(Br)c3)ncn2)c1 [I-12] : ≤ 5.00

pIC50 value, target or system JAK3 (Homo sapiens), for CN(C)C/C=C/C(=O)N(C)c1cccc(Nc2cc(Nc3ccc(Oc4ccccc4)cc3)ncn2)n1 [I-79] : ≥ 8.00

pIC50 value, target or system JAK3 (Homo sapiens), for C=CC(=O)Nc1ccc(Nc2cc(Nc3ccc(Oc4ccccc4)cc3)ncn2)cc1 [I-80] : ≤ 5.00
